Just for reference, the supplement of paper PMC7877785 is where these values come from.

procedure_text: self-splicing fitness, log relative to wild type (ln ratio); higher = more splicing; Tetrahymena group I intron in knt gene, E. coli kanamycin selection, DiMSum; sequences stand for … in CUCUCU…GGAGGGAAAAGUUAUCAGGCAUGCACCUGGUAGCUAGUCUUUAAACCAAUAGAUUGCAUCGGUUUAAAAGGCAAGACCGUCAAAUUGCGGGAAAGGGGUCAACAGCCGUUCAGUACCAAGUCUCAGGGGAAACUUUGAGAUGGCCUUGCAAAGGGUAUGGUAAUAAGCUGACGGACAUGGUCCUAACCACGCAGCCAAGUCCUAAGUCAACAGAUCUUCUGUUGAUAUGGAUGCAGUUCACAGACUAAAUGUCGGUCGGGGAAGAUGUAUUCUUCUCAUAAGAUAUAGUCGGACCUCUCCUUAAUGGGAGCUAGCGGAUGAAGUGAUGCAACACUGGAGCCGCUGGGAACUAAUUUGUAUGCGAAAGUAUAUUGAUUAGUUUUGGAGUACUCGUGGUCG;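 note: selection with 25 µg/mL kanamycin versus none on LB agar overnight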
measurement_parameters: 37 °C
endpoint_label: self-splicing fitness (ln)

INSERT INTO assay_data (seq_text, endpoint_label, result) VALUES
  ('GGUGAGCAAUAUUACGGCCA', 'self-splicing fitness (ln)', -0.395),
  ('GGGGAGCAAUAUUACGUGAU', 'self-splicing fitness (ln)', -1.8),
  ('AGCAAGCAAUAUUACGUUCA', 'self-splicing fitness (ln)', -0.464),
  ('UCCGAGCAAUAUUACGUAGA', 'self-splicing fitness (ln)', -1.42),
  ('AGCGAGCAAUAUUACGAUAG', 'self-splicing fitness (ln)', -1.76),
  ('CCGUAGCAAUAUUACGAACU', 'self-splicing fitness (ln)', -1.14),
  ('UGCCAGCAAUAUUACGUACA', 'self-splicing fitness (ln)', 0.081),
  ('GUUCAGCAAUAUUACGCUGG', 'self-splicing fitness (ln)', -1.53),
  ('ACUCAGCAAUAUUACGAUUA', 'self-splicing fitness (ln)', -0.431),
  ('GUUAAGCAAUAUUACGUCCA', 'self-splicing fitness (ln)', 0.057),
  ('GGCUAGCAAUAUUACGAUUG', 'self-splicing fitness (ln)', -1.47),
  ('GGAGAGCAAUAUUACGUGUA', 'self-splicing fitness (ln)', -3.17),
  ('GGGAAGCAAUAUUACGGGCG', 'self-splicing fitness (ln)', -0.362),
  ('GAAUAGCAAUAUUACGGUCA', 'self-splicing fitness (ln)', -0.154),
  ('GGCUAGCAAUAUUACGUGUC', 'self-splicing fitness (ln)', -1.26),
  ('CUUCAGCAAUAUUACGAUGC', 'self-splicing fitness (ln)', -2.23),
  ('UCCGAGCAAUAUUACGUGCC', 'self-splicing fitness (ln)', -2.97),
  ('CGGGAGCAAUAUUACGCGGC', 'self-splicing fitness (ln)', -1.77),
  ('UUCAAGCAAUAUUACGUUAA', 'self-splicing fitness (ln)', -1.47),
  ('ACGGAGCAAUAUUACGACGA', 'self-splicing fitness (ln)', -0.442),
  ('GAUAAGCAAUAUUACGCGAA', 'self-splicing fitness (ln)', -1.65),
  ('GUUCAGCAAUAUUACGCAUA', 'self-splicing fitness (ln)', 0.0985),
  ('UACGAGCAAUAUUACGCAAA', 'self-splicing fitness (ln)', -1.67),
  ('ACUUAGCAAUAUUACGAUUA', 'self-splicing fitness (ln)', -1.55),
  ('CCUGAGCAAUAUUACGGUUC', 'self-splicing fitness (ln)', -3.06),
  ('GCAGAGCAAUAUUACGAUCA', 'self-splicing fitness (ln)', -1.94),
  ('UUGCAGCAAUAUUACGGAUG', 'self-splicing fitness (ln)', -1.21),
  ('GCCCAGCAAUAUUACGAGCU', 'self-splicing fitness (ln)', -1.89),
  ('CCGAAGCAAUAUUACGGUUA', 'self-splicing fitness (ln)', -2.08),
  ('CCACAGCAAUAUUACGCUAG', 'self-splicing fitness (ln)', -1.36),
  ('UGCCAGCAAUAUUACGCCUG', 'self-splicing fitness (ln)', -0.0397),
  ('GAGUAGCAAUAUUACGCAAC', 'self-splicing fitness (ln)', -2.66),
  ('GGUUAGCAAUAUUACGCGAU', 'self-splicing fitness (ln)', -3.48),
  ('AAGCAGCAAUAUUACGCUAC', 'self-splicing fitness (ln)', -2.31),
  ('CUUUAGCAAUAUUACGCGGC', 'self-splicing fitness (ln)', -0.897),
  ('UGGAAGCAAUAUUACGUGUU', 'self-splicing fitness (ln)', -2.7),
  ('CAUGAGCAAUAUUACGAAUG', 'self-splicing fitness (ln)', -2.33),
  ('UGAAAGCAAUAUUACGCCGA', 'self-splicing fitness (ln)', -0.339),
  ('UACCAGCAAUAUUACGGCGC', 'self-splicing fitness (ln)', -0.174),
  ('AGUCAGCAAUAUUACGCGGG', 'self-splicing fitness (ln)', -1.06),
  ('CUUUAGCAAUAUUACGUAUC', 'self-splicing fitness (ln)', -3.21),
  ('CACCAGCAAUAUUACGUGGU', 'self-splicing fitness (ln)', -3.16),
  ('CGUUAGCAAUAUUACGAUGU', 'self-splicing fitness (ln)', -1.78),
  ('GUCCAGCAAUAUUACGCCGG', 'self-splicing fitness (ln)', -2.69),
  ('GUUAAGCAAUAUUACGGUGC', 'self-splicing fitness (ln)', -1.23),
  ('AAGAAGCAAUAUUACGUCCA', 'self-splicing fitness (ln)', 0.0432),
  ('GACGAGCAAUAUUACGGACC', 'self-splicing fitness (ln)', -0.304),
  ('AAUUAGCAAUAUUACGCGAG', 'self-splicing fitness (ln)', -0.918),
  ('CGCUAGCAAUAUUACGAACA', 'self-splicing fitness (ln)', -0.227),
  ('UGUUAGCAAUAUUACGCAGC', 'self-splicing fitness (ln)', -2.47),
  ('CAACAGCAAUAUUACGAAAA', 'self-splicing fitness (ln)', -1.38),
  ('CUCUAGCAAUAUUACGUUCA', 'self-splicing fitness (ln)', -3.02),
  ('GCGAAGCAAUAUUACGAAUA', 'self-splicing fitness (ln)', -1.73),
  ('GUGGAGCAAUAUUACGCAUC', 'self-splicing fitness (ln)', -2.03),
  ('GAGCAGCAAUAUUACGCCAG', 'self-splicing fitness (ln)', -2.85),
  ('UACCAGCAAUAUUACGAACC', 'self-splicing fitness (ln)', -1.05),
  ('CGCGAGCAAUAUUACGACGA', 'self-splicing fitness (ln)', -0.89),
  ('UGGAAGCAAUAUUACGCUAG', 'self-splicing fitness (ln)', -0.523),
  ('GAGAAGCAAUAUUACGCAUA', 'self-splicing fitness (ln)', -1.01),
  ('GACGAGCAAUAUUACGUGCU', 'self-splicing fitness (ln)', -2.4),
  ('UUAGAGCAAUAUUACGGUCG', 'self-splicing fitness (ln)', -0.691),
  ('AUCCAGCAAUAUUACGACGC', 'self-splicing fitness (ln)', -0.49),
  ('AAUCAGCAAUAUUACGACAG', 'self-splicing fitness (ln)', -0.761),
  ('GCCAAGCAAUAUUACGUUAC', 'self-splicing fitness (ln)', -2.39),
  ('CAUUAGCAAUAUUACGGCUU', 'self-splicing fitness (ln)', -1.98),
  ('AACGAGCAAUAUUACGGACU', 'self-splicing fitness (ln)', -0.603),
  ('UAUUAGCAAUAUUACGGUCA', 'self-splicing fitness (ln)', -0.0892);

* * *

procedure_text: self-splicing fitness, log relative to wild type (ln ratio); higher = more splicing; Tetrahymena group I intron in knt gene, E. coli kanamycin selection, DiMSum; sequences stand for … in CUCUCU…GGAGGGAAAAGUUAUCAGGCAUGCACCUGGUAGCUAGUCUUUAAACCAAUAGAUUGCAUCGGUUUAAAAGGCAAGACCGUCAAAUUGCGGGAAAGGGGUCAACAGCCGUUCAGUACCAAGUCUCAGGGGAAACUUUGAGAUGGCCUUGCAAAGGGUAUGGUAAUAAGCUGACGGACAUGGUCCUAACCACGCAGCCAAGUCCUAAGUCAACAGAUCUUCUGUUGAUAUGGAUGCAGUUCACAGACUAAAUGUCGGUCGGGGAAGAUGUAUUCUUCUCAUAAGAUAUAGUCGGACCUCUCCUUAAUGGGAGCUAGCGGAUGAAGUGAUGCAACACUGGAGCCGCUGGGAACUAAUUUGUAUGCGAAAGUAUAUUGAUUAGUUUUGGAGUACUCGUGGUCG
measurement_parameters: 37 °C
So basically: self-splicing fitness (ln) at -1 or higher? That is t. Lower than -1? That is f.

INSERT INTO results (seq_text, group) VALUES
  ('CCGGAGCAAUAUUACGUGUA', 'f'),
  ('AAACAGCAAUAUUACGCAGC', 'f'),
  ('CCGAAGCAAUAUUACGCAAG', 'f'),
  ('GUAGAGCAAUAUUACGUACU', 'f'),
  ('CCCAAGCAAUAUUACGAGAG', 'f'),
  ('AUCUAGCAAUAUUACGUCGU', 'f'),
  ('GUUUAGCAAUAUUACGUGCG', 't'),
  ('GUCCAGCAAUAUUACGCUCG', 'f'),
  ('CCGUAGCAAUAUUACGGACU', 'f'),
  ('AAACAGCAAUAUUACGAGUA', 'f'),
  ('UGGCAGCAAUAUUACGUCAU', 'f'),
  ('ACCAAGCAAUAUUACGCGCU', 't'),
  ('CAUCAGCAAUAUUACGCGAU', 'f'),
  ('AUACAGCAAUAUUACGGUCG', 't'),
  ('GUGCAGCAAUAUUACGCGGA', 'f'),
  ('UUCAAGCAAUAUUACGUGCG', 't');
